protocol_text: The drug is tested on WLS-370 corresponding to human gut metagenome with ENA study accession number: PRJEB37062 and ENA sample accession number: ERS12561793 for biotransformation under anaerobic condition. The drug concentrations were measured over 9 timepoints collected between 0 and 24 hours of incubation by liquid-chromatography-coupled mass spectrometry (LC–MS); further: call rule not given here
condition_set: 2 µM
endpoint: Bacterial Biotransformation

compound	Bacterial Biotransformation
Cc1cc2c(cc1S(N)(=O)=O)S(=O)(=O)CCC2	Compound NOT metabolized
CC(CN(C)C)CN1c2ccccc2CCc2ccccc21.O=C(O)/C=C\C(=O)O (stereo not drawn) [TRIMIPRAMINE MALEATE]	Compound NOT metabolized
CC(C)NCC(O)COc1ccc(COCCOC(C)C)cc1.CC(C)NCC(O)COc1ccc(COCCOC(C)C)cc1.O=C(O)/C=C/C(=O)O (stereo not drawn) [BISOPROLOL FUMARATE]	Compound NOT metabolized
OCCOCCN1CCN(C2=Nc3ccccc3Sc3ccccc32)CC1 [QUETIAPINE]	Compound metabolized
COc1ccc2c(c1OC)C(=O)O[C@@H]2[C@H]1c2c(cc3c(c2OC)OCO3)CCN1C [NOSCAPINE]	Compound NOT metabolized
O=c1[nH]c2ccccc2n1C1CCN(CCCC(c2ccc(F)cc2)c2ccc(F)cc2)CC1 [PIMOZIDE]	Compound metabolized
CCOC(=O)[C@H](CCc1ccccc1)N[C@@H](C)C(=O)N1[C@H](C(=O)O)C[C@H]2CCCC[C@@H]21 [TRANDOLAPRIL]	Compound NOT metabolized

Let's switch to this compound now.
Quick one: Bacterial Biotransformation of CN1CCOC(c2ccccc2)c2ccccc2C1 (stereo not drawn) [NEFOPAM] ?
Compound metabolized

---

protocol_text: The drug is tested on Z-004 corresponding to metagenome with ENA study accession number: PRJEB37062 and ENA sample accession number: ERS12561804 for biotransformation under anaerobic condition. The drug concentrations were measured over 9 timepoints collected between 0 and 24 hours of incubation by liquid-chromatography-coupled mass spectrometry (LC–MS)
condition_set: 2 µM
endpoint: Bacterial Biotransformation

Use the examples below as a reference point.
molecule	endpoint	result
CCCCCOC(=O)Nc1nc(=O)n([C@@H]2O[C@H](C)[C@@H](O)[C@H]2O)cc1F	Bacterial Biotransformation	Compound metabolized
Cc1ccc(S(=O)(=O)NC(=O)NN2CC3CCCC3C2)cc1 (stereo not given) [GLICLAZIDE]	Bacterial Biotransformation	Compound NOT metabolized
OCCN1CCN(CCCN2c3ccccc3Sc3ccc(C(F)(F)F)cc32)CC1	Bacterial Biotransformation	Compound metabolized
COC(=O)Nc1nc2ccc(C(=O)c3ccccc3)cc2[nH]1	Bacterial Biotransformation	Compound metabolized

Quick one: Bacterial Biotransformation of "NC12CC3CC(CC(C3)C1)C2" ?
Compound NOT metabolized

---

condition_set: human gut metagenome, 24 h, 2 µM
endpoint: Bacterial Biotransformation

Use the examples below as a reference point.
compound	Bacterial Biotransformation
CC(C)c1nc(CN(C)C(=O)N[C@H](C(=O)N[C@@H](Cc2ccccc2)C[C@H](O)[C@H](Cc2ccccc2)NC(=O)OCc2cncs2)C(C)C)cs1	Compound metabolized
Cc1ccc(-c2cc(C(F)(F)F)nn2-c2ccc(S(N)(=O)=O)cc2)cc1	Compound metabolized
COC(=O)C1=C(C)NC(C)=C(C(=O)OC(C)C)C1c1cccc2nonc12 (stereo not drawn)	Compound metabolized
O=C(O)CCc1nc(-c2ccccc2)c(-c2ccccc2)o1	Compound metabolized
COc1ccccc1OCC(O)CN1CCN(CC(=O)Nc2c(C)cccc2C)CC1 (stereo not drawn)	Compound NOT metabolized

For the 8 compounds below, give their Bacterial Biotransformation values.
1. CCCC1O[C@@H]2C[C@H]3[C@@H]4CCC5=CC(=O)C=C[C@]5(C)[C@H]4[C@@H](O)C[C@]3(C)[C@]2(C(=O)CO)O1 (stereo partly drawn) [BUDESONIDE]
2. CCN(CC)CCOCCOC(=O)C1(c2ccccc2)CCCC1.O=C(O)CC(O)(CC(=O)O)C(=O)O [CARBETAPENTANE CITRATE]
3. O=C(Nc1ccccc1)OCC(CN1CCCCC1)OC(=O)Nc1ccccc1 (stereo not drawn)
4. Cc1ccc(S(=O)(=O)NC(=O)NN2CC3CCCC3C2)cc1 (stereo not drawn) [GLICLAZIDE]
5. CCN(CC)C(C)CN1c2ccccc2Sc2ccccc21 (stereo not drawn)
6. COC(=O)Nc1nc2ccc(C(=O)c3ccccc3)cc2[nH]1
7. COc1ccc2c3c1O[C@H]1C[C@@H](O)C=C[C@@]31CCN(C)C2
8. CCOC(=O)[C@H](CCc1ccccc1)N[C@@H](C)C(=O)N1[C@H](C(=O)O)C[C@@H]2CCC[C@@H]21

1. Compound metabolized
2. Compound metabolized
3. Compound metabolized
4. Compound metabolized
5. Compound metabolized
6. Compound metabolized
7. Compound NOT metabolized
8. Compound metabolized

For the 4 compounds below, give their Bacterial Biotransformation values.
1. CCN(CC)CCNC(C(=O)OCCC(C)C)c1ccccc1.Cl.Cl (stereo not drawn)
2. COc1ccc2[nH]c([S+]([O-])Cc3ncc(C)c(OC)c3C)nc2n1 (stereo not drawn)
3. NS(=O)(=O)c1cc2c(cc1Cl)N=C(CSCc1ccccc1)NS2(=O)=O [BENZTHIAZIDE]
4. CN(C)CCC=C1c2ccccc2C=Cc2ccccc21

Compound metabolized
Compound metabolized
Compound NOT metabolized
Compound metabolized

Quick one: Bacterial Biotransformation of "CNC(=C[N+](=O)[O-])NCCSCc1csc(CN(C)C)n1" ?
Compound NOT metabolized

---

condition_set: human gut metagenome, 24 h, 2 µM
endpoint: Bacterial Biotransformation

Use the examples below as a reference point.
compound	result
C[C@@H](CO)NC(=O)[C@@H]1C=C2c3cccc4[nH]cc(c34)C[C@H]2N(C)C1.O=C(O)/C=C\C(=O)O [ERGONOVINE MALEATE]	Compound NOT metabolized
CC(C)(C(=O)O)c1ccc(C(O)CCCN2CCC(C(O)(c3ccccc3)c3ccccc3)CC2)cc1 (stereo not drawn) [FEXOFENADINE]	Compound NOT metabolized
CC(C)NCC(O)COc1ccc(CCOCC2CC2)cc1 (stereo not drawn)	Compound metabolized
CCCCCCOC(=O)/N=C(/N)c1ccc(NCc2nc3cc(C(=O)N(CCC(=O)OCC)c4ccccn4)ccc3n2C)cc1.CS(=O)(=O)O [DABIGATRAN ETEXILATE MESYLATE]	Compound NOT metabolized
O=P(O)(O)O.c1ccc(CN(CC2=NCCN2)c2ccccc2)cc1 [ANTAZOLINE PHOSPHATE]	Compound metabolized

For the 5 compounds below, give their Bacterial Biotransformation values.
1. COC1=CC(=O)C[C@@H](C)[C@]12Oc1c(Cl)c(OC)cc(OC)c1C2=O
2. Cc1ccnc2c1NC(=O)c1cccnc1N2C1CC1
3. CC(C)(C#N)c1cc(Cn2cncn2)cc(C(C)(C)C#N)c1
4. CC[C@H](C)C(=O)O[C@H]1C[C@@H](C)C=C2C=C[C@H](C)[C@H](CC[C@@H]3C[C@@H](O)CC(=O)O3)[C@H]21
5. CCCCc1nc(Cl)c(CO)n1Cc1ccc(-c2ccccc2-c2nn[nH]n2)cc1

1. Compound metabolized
2. Compound metabolized
3. Compound NOT metabolized
4. Compound NOT metabolized
5. Compound metabolized

---

protocol_text: The drug is tested on Z-012 corresponding to metagenome with ENA study accession number: PRJEB37062 and ENA sample accession number: ERS12561812 for biotransformation under anaerobic condition. The drug concentrations were measured over 9 timepoints collected between 0 and 24 hours of incubation by liquid-chromatography-coupled mass spectrometry (LC–MS)
condition_set: 2 µM
endpoint: Bacterial Biotransformation

Use the examples below as a reference point.
molecule	Bacterial Biotransformation
O=C1[C@H](CC[C@H](O)c2ccc(F)cc2)[C@@H](c2ccc(O)cc2)N1c1ccc(F)cc1	Compound NOT metabolized
CCN(CC)C(C)CN1c2ccccc2Sc2ccccc21 (stereo unspecified)	Compound metabolized
Cc1ccc(-c2nc3ccc(C)cn3c2CC(=O)N(C)C)cc1	Compound NOT metabolized
CCCCc1nc(Cl)c(CO)n1Cc1ccc(-c2ccccc2-c2nn[nH]n2)cc1	Compound NOT metabolized
Cc1ccc(/C(=C\CN2CCCC2)c2ccccn2)cc1	Compound NOT metabolized

For the 6 molecules below, give their Bacterial Biotransformation values.
1. CC(C)(Oc1ccc(CCNC(=O)c2ccc(Cl)cc2)cc1)C(=O)O [BEZAFIBRATE]
2. Cc1cc2c(cc1S(N)(=O)=O)S(=O)(=O)CCC2
3. CC(CN1c2ccccc2Sc2ccccc21)N(C)C (stereo unspecified)
4. C=CCN1CC[C@]23c4c5ccc(O)c4O[C@H]2C(=O)CC[C@@]3(O)[C@H]1C5
5. C[C@@H](CO)NC(=O)[C@@H]1C=C2c3cccc4[nH]cc(c34)C[C@H]2N(C)C1.O=C(O)/C=C\C(=O)O [ERGONOVINE MALEATE]
6. CCc1nc(N)nc(N)c1-c1ccc(Cl)cc1

1. Compound NOT metabolized
2. Compound NOT metabolized
3. Compound NOT metabolized
4. Compound NOT metabolized
5. Compound NOT metabolized
6. Compound NOT metabolized

Hey, just so you know, these numbers are from ChEMBL document CHEMBL5724914.
